Values from patent US11279966B2

In this section we review reported Demethylase Residual Activity (%) values for a set of compounds.
systemName: KDM4A (Homo sapiens)
Construct: Human KDM4B 1-348 and KDM4A 1-347 were PCR amplified; His6 (N); made in house; host or cells: Escherichia coli BL21 (DE3)
Sequence (O75164 1-347): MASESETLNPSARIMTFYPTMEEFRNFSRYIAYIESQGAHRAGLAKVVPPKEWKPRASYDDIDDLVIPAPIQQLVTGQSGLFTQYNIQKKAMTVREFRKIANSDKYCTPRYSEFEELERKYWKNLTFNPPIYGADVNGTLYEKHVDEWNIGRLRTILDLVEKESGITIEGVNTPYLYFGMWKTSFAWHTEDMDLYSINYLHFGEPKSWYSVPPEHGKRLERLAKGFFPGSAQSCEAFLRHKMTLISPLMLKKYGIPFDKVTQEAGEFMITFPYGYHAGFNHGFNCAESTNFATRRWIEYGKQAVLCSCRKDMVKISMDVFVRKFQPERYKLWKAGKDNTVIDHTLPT
runDescription: Formaldehyde dehydrogenase-coupled demethylase assay, KDM4A
Assay type: biochemical
Design: concentration or dose not given beside the values
testParameters: FDH-coupled assay
Just the number in %, nothing appended.

>  <compound>
CCCCCC/C(C)=N/Nc1ccc([N+](=O)[O-])cc1[N+](=O)[O-] [NSC1018]

>  <Demethylase Residual Activity (%)>
85

$$$$
>  <compound>
COC(=O)C(C(=O)C(=O)Nc1ccc([N+](=O)[O-])cc1[N+](=O)[O-])c1nc2ccc(Cl)cc2[nH]c1=O (stereo not shown) [NSC640999]

>  <Demethylase Residual Activity (%)>
77

$$$$
>  <compound>
C/C(=N/Nc1ccc([N+](=O)[O-])cc1[N+](=O)[O-])c1ccccc1 [NSC6129]

>  <Demethylase Residual Activity (%)>
100

$$$$

Now for the compound whose Demethylase Residual Activity (%) we want.
Problem: For the compound shown here, COC1CC(OC(=O)c2ccc([N+](=O)[O-])cc2)C(OC(=O)c2ccc([N+](=O)[O-])cc2)C(C)O1 (stereo not shown) [NSC107408] , give the reported Demethylase Residual Activity (%).
Result: 99
